Cited source: patent US8034580B2

sensitivity values, listed per item
Tested on: microorganism of Delvotest® MCS test medium
Experiment: Production scale Delvotest MCS microbiological inhibition test, sensitivity for different antibiotics (Example 4)
Format: cell-based
Details: indicator Bromothymol Blue (160 mg·l^−1); Batch #1, three weeks after production

• CC1(C)S[C@@H]2[C@H](NC(=O)[C@H](N)c3ccc(O)cc3)C(=O)N2[C@H]1C(=O)O = 4 ppb
• CC(=O)OCC1=C(C(=O)O)N2C(=O)[C@@H](NC(=O)CSc3ccncc3)[C@H]2SC1 = 4 ppb
• CC1(C)S[C@@H]2[C@H](NC(=O)Cc3ccccc3)C(=O)N2[C@H]1C(=O)O = 2 ppb
• CC1(C)S[C@@H]2[C@H](NC(=O)[C@H](N)c3ccccc3)C(=O)N2[C@H]1C(=O)O = 2 ppb

Asked: sensitivity lookup needed for `Cc1onc(-c2ccccc2Cl)c1C(=O)N[C@@H]1C(=O)N2[C@@H]1SC(C)(C)[C@@H]2C(=O)O` , thanks.
Given back: 20 ppb
